# IC50 values compiled below
- Study Target: LRRK2 G2019S (Homo sapiens, UniProt Q5S007, G2019S)
- Sequence (Q5S007 whole entry G2019S): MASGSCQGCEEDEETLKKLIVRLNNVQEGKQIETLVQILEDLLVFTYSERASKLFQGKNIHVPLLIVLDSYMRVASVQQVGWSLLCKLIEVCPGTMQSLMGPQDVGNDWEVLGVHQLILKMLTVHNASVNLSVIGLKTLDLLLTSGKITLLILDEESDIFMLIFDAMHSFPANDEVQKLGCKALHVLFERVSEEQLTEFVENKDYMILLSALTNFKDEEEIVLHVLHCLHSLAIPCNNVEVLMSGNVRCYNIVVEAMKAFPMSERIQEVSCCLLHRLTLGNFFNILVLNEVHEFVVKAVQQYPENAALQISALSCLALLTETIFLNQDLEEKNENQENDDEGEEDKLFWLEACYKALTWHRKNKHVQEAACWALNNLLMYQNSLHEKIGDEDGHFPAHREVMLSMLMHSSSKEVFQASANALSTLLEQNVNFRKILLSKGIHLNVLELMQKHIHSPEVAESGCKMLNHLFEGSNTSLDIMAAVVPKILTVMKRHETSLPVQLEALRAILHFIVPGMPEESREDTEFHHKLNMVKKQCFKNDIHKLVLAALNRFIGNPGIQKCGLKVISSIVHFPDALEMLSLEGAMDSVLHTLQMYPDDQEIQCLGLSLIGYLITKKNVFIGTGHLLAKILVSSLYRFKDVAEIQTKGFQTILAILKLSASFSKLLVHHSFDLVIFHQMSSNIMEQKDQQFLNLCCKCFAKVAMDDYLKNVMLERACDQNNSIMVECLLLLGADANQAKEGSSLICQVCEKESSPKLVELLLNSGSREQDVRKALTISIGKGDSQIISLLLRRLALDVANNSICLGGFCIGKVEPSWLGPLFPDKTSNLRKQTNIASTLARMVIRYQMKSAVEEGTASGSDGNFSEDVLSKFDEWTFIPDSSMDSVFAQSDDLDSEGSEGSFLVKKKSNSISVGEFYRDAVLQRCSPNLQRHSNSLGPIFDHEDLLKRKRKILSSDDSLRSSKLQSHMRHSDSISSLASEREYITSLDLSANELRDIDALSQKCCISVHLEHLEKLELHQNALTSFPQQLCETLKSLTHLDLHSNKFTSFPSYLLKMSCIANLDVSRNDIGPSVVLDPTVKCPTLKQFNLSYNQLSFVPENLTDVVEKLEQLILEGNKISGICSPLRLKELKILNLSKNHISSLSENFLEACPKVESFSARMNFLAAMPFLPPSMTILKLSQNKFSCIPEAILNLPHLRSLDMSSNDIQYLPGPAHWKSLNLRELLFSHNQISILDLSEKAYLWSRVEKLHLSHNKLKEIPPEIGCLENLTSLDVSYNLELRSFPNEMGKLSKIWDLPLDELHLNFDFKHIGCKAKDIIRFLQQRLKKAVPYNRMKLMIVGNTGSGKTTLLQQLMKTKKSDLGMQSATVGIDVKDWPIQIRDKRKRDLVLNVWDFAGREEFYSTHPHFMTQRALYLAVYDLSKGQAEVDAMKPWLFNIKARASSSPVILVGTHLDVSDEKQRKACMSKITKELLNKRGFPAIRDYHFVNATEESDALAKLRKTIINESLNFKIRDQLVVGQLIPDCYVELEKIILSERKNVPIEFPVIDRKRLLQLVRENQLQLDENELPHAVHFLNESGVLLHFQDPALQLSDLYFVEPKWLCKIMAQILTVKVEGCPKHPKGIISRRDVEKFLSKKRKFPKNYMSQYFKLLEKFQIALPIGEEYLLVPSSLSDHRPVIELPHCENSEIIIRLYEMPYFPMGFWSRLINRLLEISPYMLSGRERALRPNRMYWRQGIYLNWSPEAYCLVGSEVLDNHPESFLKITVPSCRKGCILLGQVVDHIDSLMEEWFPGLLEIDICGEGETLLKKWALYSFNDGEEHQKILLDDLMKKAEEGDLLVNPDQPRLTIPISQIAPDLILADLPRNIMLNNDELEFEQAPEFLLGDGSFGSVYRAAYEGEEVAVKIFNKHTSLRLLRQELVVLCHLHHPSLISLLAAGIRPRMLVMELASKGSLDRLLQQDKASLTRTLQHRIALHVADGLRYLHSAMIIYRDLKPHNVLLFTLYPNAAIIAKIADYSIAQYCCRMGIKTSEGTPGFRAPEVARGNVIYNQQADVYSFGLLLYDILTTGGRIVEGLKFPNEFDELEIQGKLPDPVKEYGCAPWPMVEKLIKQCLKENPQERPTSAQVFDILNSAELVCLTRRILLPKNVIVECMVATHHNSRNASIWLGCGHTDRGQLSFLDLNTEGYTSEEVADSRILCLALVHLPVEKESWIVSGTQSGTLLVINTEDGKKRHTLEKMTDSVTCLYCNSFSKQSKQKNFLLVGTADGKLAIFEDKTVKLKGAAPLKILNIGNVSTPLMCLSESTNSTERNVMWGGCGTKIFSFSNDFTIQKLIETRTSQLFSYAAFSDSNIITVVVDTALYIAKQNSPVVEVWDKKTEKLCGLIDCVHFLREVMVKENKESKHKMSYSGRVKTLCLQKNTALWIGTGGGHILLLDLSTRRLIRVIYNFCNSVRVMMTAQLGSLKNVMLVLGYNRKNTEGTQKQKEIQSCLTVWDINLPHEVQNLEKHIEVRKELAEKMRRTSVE
- Measurement Description: LRRK2 G2019S Km ATP LanthaScreen assay
- Format: biochemical
- Condition Details: read-out: LRRK2 pIC50 (converted)

Molecule	IC50
Cc1cc2cnc(NC(=O)C3CC3C(F)F)cc2cc1C1CCN(C2(C)COCC2O)CC1 (stereo not shown) [Ex-2.56]	1.58 nM
CC1(N2CCC(c3cc4cc(NC(=O)C5CC5)ncc4cc3Cl)C(F)C2)COC1 (stereo not shown)	0.589 nM
COC1CN(C2CCC(c3cc4cc(NC(=O)C5CC56CCOCC6)ncc4cc3Cl)CC2)C1 (single isomer, unassigned) [Ex-11.3]	0.0813 nM
CC1CC1C(=O)Nc1cc2cc(C3CCN(C4COC4)CC3)c(Cl)cc2cn1 (single isomer, unassigned) [Ex-9.6]	8.91 nM

###

# log10(IC50) values compiled below
- Study Target: LRRK2 G2019S (Homo sapiens, UniProt Q5S007, G2019S)
- Measurement Description: LRRK2 G2019S Km ATP LanthaScreen assay
- Type: biochemical
- Condition Details: read-out: LRRK2 pIC50 (converted)
Metric: log10(IC50) (log10 of the value in nM)

Compound	Metric	Experimental Value
CC1(N2CCC(c3cc4cc(NC(=O)C5CC5C(F)F)ncc4cc3Cl)CC2)COCC1O (single isomer, unassigned) [Ex-10.9]	log10(IC50)	0.86
CC1COCC1(C)N1CCC(c2cc3cc(NC(=O)C4CC45CCOCC5)ncc3cc2Cl)CC1 (single isomer, unassigned) [Ex-6.10]	log10(IC50)	2.04
O=C(Nc1cc2cc(C3CCN(C4COC4)CC3)c(Cl)cc2cn1)c1cocn1	log10(IC50)	1.06
CC1(N2CCC(c3cc4cc(NC(=O)C5CCC(C(F)(F)F)OC5)ncc4cc3Cl)CC2)COCC1O (stereo not shown) [Ex-2.59]	log10(IC50)	0.71
CC1(C)CC(C(=O)Nc2cc3cc(C4CCN(C5(C)CCOC5)CC4)c(Cl)cc3cn2)CCO1 (single isomer, unassigned) [Ex-6.46]	log10(IC50)	0.08
Cc1cc2cnc(NC(=O)C3CC34CCOCC4)cc2cc1C1CCN(C2(C)COCC2C)CC1 (single isomer, unassigned) [Ex-15.3]	log10(IC50)	1.68
C[C@@]1(N2CCC(c3cc4cc(NC(=O)c5ccn(C6CC6)n5)ncc4cc3Cl)CC2)COC[C@@H]1O (single isomer, unassigned)	log10(IC50)	1.59
CC1(N2CCC(c3cc4cc(NC(=O)C5CC5C5CCOCC5)ncc4cc3Cl)CC2)COCC1F (stereo not shown)	log10(IC50)	-1.09
CCC1C(C(=O)Nc2cc3cc(C4CCN(C5(C)COCC5F)CC4)c(C)cc3cn2)C1c1cnn(C)c1 (single isomer, unassigned)	log10(IC50)	1.77
CC1(C)CC(C(=O)Nc2cc3cc(C4CCN(C5(C)COCC5O)CC4)c(Cl)cc3cn2)CCO1 (stereo not shown) [Ex-2.35]	log10(IC50)	0.42
N#CC1(c2ccc3cnc(NC(=O)C4CC45CCOC5)cc3c2)CC12CC2 (stereo not shown) [Ex-2.63]	log10(IC50)	1.09
CC1(N2CCC(c3cc4cc(NC(=O)C5CC5c5ccncc5)ncc4cc3Cl)CC2)COCC1O (single isomer, unassigned) [Ex-4.21]	log10(IC50)	-1.09
CC1(C)CC(C(=O)Nc2cc3cc(C4CCN(C5(C)COCC5O)CC4)c(Cl)cc3cn2)CCO1 (stereo not shown) [Ex-2.34]	log10(IC50)	0.23
O=C(Nc1cc2cc(C3CCC(N4CC(F)C4)CC3)c(Cl)cc2cn1)C1CC12CCOCC2 (single isomer, unassigned) [Ex-11.5]	log10(IC50)	2.27
CCOC1CC2(C1)CC2C(=O)Nc1cc2cc(C3CCN(C4(C)COCC4O)CC3)c(Cl)cc2cn1 (single isomer, unassigned) [Ex-4.32]	log10(IC50)	0.41
Cc1ccc(C2CC2C(=O)Nc2cc3cc(C4CCN(C5(C)COCC5O)CC4)c(Cl)cc3cn2)s1 (single isomer, unassigned) [Ex-4.57]	log10(IC50)	1.62
CC1(N2CCC(c3cc4cc(NC(=O)C5CC(c6ccccn6)C5)ncc4cc3Cl)CC2)COCC1O (single isomer, unassigned) [Ex-4.76]	log10(IC50)	1.62
Cn1ncc(C2CC2C(=O)Nc2cc3cc(C4CCN(C5(C)COCC5O)CC4)c(Cl)cc3cn2)n1 (racemic)	log10(IC50)	-1.09
Cn1cc(C2CC2C(=O)Nc2cc3cc(C4CCN(C5(C)COCC5O)CC4)c(Cl)cc3cn2)cn1 (stereo not shown) [Ex-2.37]	log10(IC50)	-1.09
CCC(=O)N1CCC(C(=O)Nc2cc3cc(C4(C#N)CC45CC5)ccc3cn2)CC1 (single isomer, unassigned)	log10(IC50)	0.37
CC1CC(C(=O)Nc2cc3cc(C4CCN(C5(C)COC5)CC4)c(Cl)cc3cn2)C1 (racemic)	log10(IC50)	0.74
CC(C)(F)C1CC1C(=O)Nc1cc2cc(C3CCN(C4(C)COCC4O)CC3)c(Cl)cc2cn1 (single isomer, unassigned) [Ex-4.48]	log10(IC50)	0.10

###

# log10(IC50) values compiled below
- Study Target: LRRK2 G2019S (Homo sapiens, UniProt Q5S007, G2019S)
- Measurement Description: LRRK2 G2019S Km ATP LanthaScreen assay
- Type: biochemical
- Condition Details: read-out: LRRK2 pIC50 (converted)
Metric: log10(IC50) (log10 of the value in nM)

Compound	log10(IC50)
CC1(N2CCC(c3cc4cc(NC(=O)C5C6CCOCC65)ncc4cc3Cl)CC2)COCC1O (single isomer, unassigned) [Ex-4.33]	0.07
CC1(N2CCC(c3cc4cc(NC(=O)C5CC56CCOC6)ncc4cc3Cl)CC2)COCC1F (single isomer, unassigned) [Ex-6.4]	2.15
O=C(Nc1cc2cc(C3CCC(N4CC(F)C4)CC3)c(Cl)cc2cn1)C1CC1c1ccccn1 (single isomer, unassigned) [Ex-5.2]	2.82
CC1(N2CCC(c3cc4cc(NC(=O)C5CC56CC6)ncc4cc3Cl)CC2)COCC1O (single isomer, unassigned) [Ex-4.6]	-0.83
CC1(N2CCC(c3cc4cc(NC(=O)C5C6CCCOC65)ncc4cc3Cl)CC2)COCC1O (single isomer, unassigned) [Ex-4.14]	-1.09
Cn1ncc(C2CC2C(=O)Nc2cc3cc(C4(C#N)CC45CC5)ccc3cn2)c1Cl (stereo not shown) [Ex-2.78]	1.21
Cc1cc2cnc(NC(=O)C3CC34CCOC4)cc2cc1C1CCN(C2(C)COCC2F)CC1 (single isomer, unassigned) [Ex-15.8]	2.34

###

- Study Target: LRRK2 G2019S (Homo sapiens, UniProt Q5S007, G2019S)
- Measurement Description: LRRK2 G2019S Km ATP LanthaScreen assay
- Type: biochemical
- Condition Details: read-out: LRRK2 pIC50 (converted)
- Description: Unless otherwise noted, all reactions are magnetically stirred. Unless otherwise noted, when diethyl ether is used in the experiments described below, it is Fisher ACS certified material and is stabilized with BHT. Unless otherwise noted, “concentrated” and/or “solvent removed under reduced pressure” means evaporating the solvent from a solution or mixture using a rotary evaporator or vacuum pump. […]

Compound	Output Unit	IC50
CC1(C)CC(C(=O)Nc2cc3cc(C4CCN(C5(C)CCOC5)CC4)c(Cl)cc3cn2)CCO1 (single isomer, unassigned) [Ex-6.44]	nM	5.37
N#CC1(c2ccc3cnc(NC(=O)C4CC(OC(F)F)C4)cc3c2)CC12CC2 (single isomer, unassigned) [Ex-2.7]	nM	10.5
Cc1cc2cnc(NC(=O)C3CC3C(F)F)cc2cc1C1CCN(C2(C)COCC2O)CC1 (stereo not shown) [Ex-2.54]	nM	0.49
CC1(N2CCC(c3cc4cc(NC(=O)C5C6CCOCC65)ncc4cc3Cl)CC2)COCC1O (single isomer, unassigned) [Ex-4.34]	nM	1.38
CC1(C)C(C(=O)Nc2cc3cc(C4CCN(C5(C)COCC5O)CC4)c(Cl)cc3cn2)C1c1ccccn1 (single isomer, unassigned) [Ex-4.45]	nM	7.08
Cn1cc(C2CC2C(=O)Nc2cc3cc(C4CC(N5CC(F)C5)C4)c(Cl)cc3cn2)cn1 (single isomer, unassigned) [Ex-5.25]	nM	0.575
CC1(N2CCC(c3cc4cc(NC(=O)C5CC56CCOCC6)ncc4cc3Cl)CC2)CCOC1 (stereo not shown) [Ex-2.23]	nM	0.166

###

# IC50 values compiled below
- Study Target: LRRK2 G2019S (Homo sapiens, UniProt Q5S007, G2019S)
- Measurement Description: LRRK2 G2019S Km ATP LanthaScreen assay
- Type: biochemical
- Condition Details: read-out: LRRK2 pIC50 (converted)
Metric: IC50 (nM)

Compound	Metric	Experimental Value
Cn1cc(C2CC2C(=O)Nc2cc3cc(C4CCN(C5(C)COCC5F)CC4)c(Cl)cc3cn2)cn1 (single isomer, unassigned) [Ex-6.31]	IC50	0.178
CC1(C)CCC(C(=O)Nc2cc3cc(C4CCC(N5CCC(F)C5)CC4)c(Cl)cc3cn2)CO1 (single isomer, unassigned) [Ex-5.22]	IC50	6.17
CCC1C(C(=O)Nc2cc3cc(C4CCC(N5CC(F)C5)CC4)c(Cl)cc3cn2)C1c1cnn(C)c1 (single isomer, unassigned) [Ex-11.8]	IC50	0.0813
